Test: metabolic stability in human liver microsomes
Format: in vitro ADME
Settings: human, liver microsomes, 37 °C, NADPH regenerating system, 180 min
MEASURED PARAMETER: remaining at 3 h (%)
Number in %, nothing else.

Incoming: Using the record for COc1ccc(C(=O)c2ccc3c(ccn3C)c2)c2c1C=CC(C)(C)O2 [compound 14b] , report its remaining at 3 h.
Outgoing: 50.6

====

Test system: A549 (human non-small-cell-lung cancer cell line)
Assay: CCK-8 antiproliferative assay, A549
Assay type: cell-based
Conditions: 48 h, read-out: IC50, Mean ± SE, A549
IC50 under 200 nM gets Satisfied, anything at or over 200 nM gets Not satisfied.

COc1cc(C(=O)c2ccc3c(ccn3C)c2)cc2c1OC(C)(C)C=C2 [21b] :: Satisfied

Incoming: Is the reported IC50 for COc1cc(C(=O)c2cccc3c2ccn3C)cc2c1OC(C)(C)C=C2 [19b] strictly below 200 nM?
Outgoing: Not satisfied

Incoming: Request: COc1ccc(C(=O)c2ccc(OC)c3c2OC(C)(C)C=C3)cc1 [Compd. A, reference compound]
Outgoing: Not satisfied

Incoming: Request: COc1ccc(C(=O)c2cccc3c2ccn3C)c2c1C=CC(C)(C)O2 [11b]
Outgoing: Not satisfied

Incoming: Request: COc1cc(C(=O)c2cccc3[nH]ccc23)cc2c1OC(C)(C)C=C2 [19a]
Outgoing: Not satisfied

Incoming: Request: COc1cc(C(=O)c2ccc3[nH]ccc3c2)cc2c1OC(C)(C)C=C2 [21a]
Outgoing: Satisfied

Incoming: Request: COc1ccc(C(=O)c2ccc3[nH]ccc3c2)c2c1C=CC(C)(C)O2 [14a]
Outgoing: Satisfied

Incoming: Request: COc1ccc(C(=O)c2cccc3[nH]ccc23)c2c1C=CC(C)(C)O2 [compound 11a]
Outgoing: Not satisfied

Incoming: Request: COc1ccc(/C=C/C(=O)c2ccc(OC)c3c2OC(C)(C)C=C3)cc1 [Millepachine]
Outgoing: Not satisfied

Incoming: Request: COc1ccc(C(=O)c2ccc3c(ccn3C)c2)c2c1C=CC(C)(C)O2 [compound 14b]
Outgoing: Satisfied

Incoming: Request: COc1cc(C(=O)/C=C/c2c[nH]c3ccccc23)cc2c1OC(C)(C)C=C2 [compound 5a]
Outgoing: Not satisfied

Incoming: Request: COc1cc(C(=O)/C=C/c2cn(C)c3ccccc23)cc2c1OC(C)(C)C=C2 [5b]
Outgoing: Not satisfied
